measuredOn: CREBBP (Homo sapiens, UniProt Q92793)
Sequence (Q92793 whole entry): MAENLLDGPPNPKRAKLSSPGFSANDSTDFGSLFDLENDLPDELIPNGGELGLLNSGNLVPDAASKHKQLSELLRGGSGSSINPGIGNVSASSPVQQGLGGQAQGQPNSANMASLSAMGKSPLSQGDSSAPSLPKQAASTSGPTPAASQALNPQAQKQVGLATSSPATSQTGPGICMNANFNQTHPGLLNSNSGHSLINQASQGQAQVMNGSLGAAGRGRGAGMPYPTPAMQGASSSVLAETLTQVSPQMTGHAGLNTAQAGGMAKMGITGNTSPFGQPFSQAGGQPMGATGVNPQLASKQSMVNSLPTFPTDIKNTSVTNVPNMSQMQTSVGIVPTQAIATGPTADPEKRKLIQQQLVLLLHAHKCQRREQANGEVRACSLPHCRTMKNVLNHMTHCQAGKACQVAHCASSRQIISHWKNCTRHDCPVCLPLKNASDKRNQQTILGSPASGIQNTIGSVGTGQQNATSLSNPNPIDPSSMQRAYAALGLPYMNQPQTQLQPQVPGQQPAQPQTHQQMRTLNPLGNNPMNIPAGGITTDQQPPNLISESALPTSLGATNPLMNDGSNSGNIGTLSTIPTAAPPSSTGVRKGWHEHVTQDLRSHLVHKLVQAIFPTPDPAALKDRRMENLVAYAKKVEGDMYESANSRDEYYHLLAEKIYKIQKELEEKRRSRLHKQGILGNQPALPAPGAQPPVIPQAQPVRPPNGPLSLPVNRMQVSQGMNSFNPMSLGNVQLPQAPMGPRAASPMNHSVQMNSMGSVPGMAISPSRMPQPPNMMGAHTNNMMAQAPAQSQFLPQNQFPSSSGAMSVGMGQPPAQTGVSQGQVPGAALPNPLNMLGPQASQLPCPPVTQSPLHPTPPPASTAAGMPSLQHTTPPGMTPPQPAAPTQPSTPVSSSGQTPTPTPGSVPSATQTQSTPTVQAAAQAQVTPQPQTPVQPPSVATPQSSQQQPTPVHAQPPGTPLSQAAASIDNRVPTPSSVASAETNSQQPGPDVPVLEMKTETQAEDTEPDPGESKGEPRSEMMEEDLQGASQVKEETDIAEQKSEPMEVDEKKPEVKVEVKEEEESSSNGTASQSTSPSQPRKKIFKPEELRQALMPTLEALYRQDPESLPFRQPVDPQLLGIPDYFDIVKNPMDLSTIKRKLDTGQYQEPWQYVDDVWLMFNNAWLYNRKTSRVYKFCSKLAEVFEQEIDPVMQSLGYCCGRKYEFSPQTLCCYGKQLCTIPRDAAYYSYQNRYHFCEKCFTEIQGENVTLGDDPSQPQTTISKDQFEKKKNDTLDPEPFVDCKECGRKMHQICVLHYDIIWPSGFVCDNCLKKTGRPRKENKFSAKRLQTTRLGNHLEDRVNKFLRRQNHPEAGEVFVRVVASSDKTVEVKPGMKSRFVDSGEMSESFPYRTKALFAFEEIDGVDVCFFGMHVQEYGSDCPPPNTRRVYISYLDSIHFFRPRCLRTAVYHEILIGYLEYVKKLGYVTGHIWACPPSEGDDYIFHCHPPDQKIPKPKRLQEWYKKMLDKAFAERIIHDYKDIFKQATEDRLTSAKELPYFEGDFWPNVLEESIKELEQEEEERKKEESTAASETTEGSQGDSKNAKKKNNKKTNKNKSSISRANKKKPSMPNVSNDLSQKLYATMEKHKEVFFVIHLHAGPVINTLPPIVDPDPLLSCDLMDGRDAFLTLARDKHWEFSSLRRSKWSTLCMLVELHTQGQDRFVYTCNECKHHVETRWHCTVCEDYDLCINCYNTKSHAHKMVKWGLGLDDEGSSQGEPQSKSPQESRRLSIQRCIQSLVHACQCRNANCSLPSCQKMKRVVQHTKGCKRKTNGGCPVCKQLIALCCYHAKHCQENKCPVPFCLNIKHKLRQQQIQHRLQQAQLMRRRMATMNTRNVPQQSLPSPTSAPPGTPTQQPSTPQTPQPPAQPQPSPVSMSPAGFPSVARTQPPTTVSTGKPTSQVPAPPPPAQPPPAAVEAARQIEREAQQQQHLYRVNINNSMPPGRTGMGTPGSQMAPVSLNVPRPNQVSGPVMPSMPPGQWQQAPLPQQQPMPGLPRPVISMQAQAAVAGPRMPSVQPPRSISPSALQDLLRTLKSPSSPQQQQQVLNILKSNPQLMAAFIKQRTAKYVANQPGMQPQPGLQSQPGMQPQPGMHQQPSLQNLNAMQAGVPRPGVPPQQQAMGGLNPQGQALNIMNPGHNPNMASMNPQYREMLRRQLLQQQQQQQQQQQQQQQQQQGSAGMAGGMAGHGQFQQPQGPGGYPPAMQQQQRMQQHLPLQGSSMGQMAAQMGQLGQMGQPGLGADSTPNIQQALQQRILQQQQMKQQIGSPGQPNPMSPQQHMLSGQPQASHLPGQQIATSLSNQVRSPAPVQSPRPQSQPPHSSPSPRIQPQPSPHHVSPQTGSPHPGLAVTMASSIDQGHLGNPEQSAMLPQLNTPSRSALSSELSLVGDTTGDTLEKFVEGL
readoutType: IC50 (nM)

[[record]]
chemicalstring = "COc1ccc(C2(C(=O)N3C[C@H](F)C[C@@H]3C(=O)Nc3ccc4[nH]ncc4c3F)CCC(F)(F)CC2)cc1"
readouttype = "IC50"
experimentalresult = 95

[[record]]
chemicalstring = "CNCc1cc2nc(NC(=O)[C@H]3C[C@@H](F)CN3C(=O)C3(c4ccc(OC(F)F)cc4)CCC(F)(F)CC3)ccc2[nH]1"
readouttype = "IC50"
experimentalresult = 77

[[record]]
chemicalstring = "COCc1cc2nc(NC(=O)[C@H]3C[C@@H](F)CN3C(=O)C3(c4ccc(OC(F)F)cc4)CCC(F)(F)CC3)ccc2[nH]1"
readouttype = "IC50"
experimentalresult = 78

[[record]]
chemicalstring = "O=C(Nc1ccc2[nH]ncc2n1)[C@H]1C[C@@H](F)CN1C(=O)C1(c2ccc(C(=O)C(F)(F)F)cc2)CCCCC1"
readouttype = "IC50"
experimentalresult = 95

[[record]]
chemicalstring = "COc1ccc(C2(C(=O)N3C[C@H](F)C[C@@H]3C(=O)Nc3ccc4[nH]c(C)cc4n3)CCC(F)(F)CC2)cc1"
readouttype = "IC50"
experimentalresult = 123

[[record]]
chemicalstring = "N#Cc1ccccc1NC(=O)[C@H]1C[C@@H](F)CN1C(=O)C1(c2ccc(C(=O)O)cc2)CCCC1"
readouttype = "IC50"
experimentalresult = 125

[[record]]
chemicalstring = "COc1ccc(C2(C(=O)N3C[C@H](F)C[C@@H]3C(=O)Nc3ccc4[nH]ccc4n3)CCCCC2)cc1"
readouttype = "IC50"
experimentalresult = 27


----------
Tested on: TE-8 cells
# note: exactly 0.3 µM is not below, so it is 0; use 1 for GI50 strictly under it

[[record]]
compound = "COc1ccc(C2(C(=O)N3C[C@H](F)C[C@@H]3C(=O)Nc3ccc4[nH]ccc4n3)CCC(F)(F)CC2)cc1"
measuredon = "TE-8 cells"
group = 0

[[record]]
compound = "COc1ccc(C2(C(=O)N3C[C@H](F)C[C@@H]3C(=O)Nc3ccc4[nH]ncc4n3)CCCCC2)cc1F"
measuredon = "TE-8 cells"
group = 1

[[record]]
compound = "O=C(Nc1ccc2[nH]ncc2n1)[C@H]1C[C@@H](F)CN1C(=O)C1(c2ccc(OCF)cc2)CCCC1"
measuredon = "TE-8 cells"
group = 1

[[record]]
compound = "COc1c(F)cc(C2(C(=O)N3C[C@H](F)C[C@@H]3C(=O)Nc3ccc4[nH]ncc4n3)CCC(F)(F)CC2)cc1F"
measuredon = "TE-8 cells"
group = 0

[[record]]
compound = "COc1ccc(C2(C(=O)N3CS(=O)(=O)C[C@@H]3C(=O)Nc3ccc4[nH]c(C)cc4n3)CCC(F)(F)CC2)cc1"
measuredon = "TE-8 cells"
group = 0

[[record]]
compound = "CC(=O)c1ccc(C2(C(=O)N3C[C@H](F)C[C@@H]3C(=O)Nc3ccc4[nH]ncc4n3)CCCCC2)cc1"
measuredon = "TE-8 cells"
group = 1

[[record]]
compound = "COc1ccc(C2(C(=O)N3CS(=O)(=O)C[C@@H]3C(=O)Nc3ccc4[nH]ncc4n3)CCC(F)(F)CC2)cc1"
measuredon = "TE-8 cells"
group = 0

[[record]]
compound = "COc1ccc(C2(C(=O)N3CCOCC(Cc4cccc5[nH]ncc45)C3)CCCC2)cc1 (single isomer, unassigned) [Example 108b]"
measuredon = "TE-8 cells"
group = 0

[[record]]
compound = "COC(=O)c1ccc(C2(C(=O)N3C[C@H](F)C[C@@H]3C(=O)Nc3ccc4[nH]ncc4n3)CCCCC2)cc1 [Example 81b]"
measuredon = "TE-8 cells"
group = 1

[[record]]
compound = "COc1ccc(C2(C(=O)N(C)[C@H](CCO)C(=O)Nc3ccc4[nH]ncc4n3)CCC(F)(F)CC2)cc1"
measuredon = "TE-8 cells"
group = 0

[[record]]
compound = "COc1ccc(C2(C(=O)N(C)[C@H](CO)C(=O)Nc3ccc4[nH]ncc4n3)CCC(F)(F)CC2)cc1"
measuredon = "TE-8 cells"
group = 1

[[record]]
compound = "O=C(Nc1ccc2[nH]ncc2n1)[C@H]1C[C@@H](F)CN1C(=O)C1(c2ccc(OCF)c(F)c2)CC(F)(F)C1"
measuredon = "TE-8 cells"
group = 1

[[record]]
compound = "CC(C)(C(=O)N1C[C@H](F)C[C@@H]1C(=O)Nc1ccc2[nH]ncc2n1)c1ccc(OC(F)(F)F)cc1"
measuredon = "TE-8 cells"
group = 0

[[record]]
compound = "COc1ccc(C2(C(=O)N3C[C@H](F)C[C@@H]3C(=O)Nc3ccc4[nH]ncc4n3)CC(C)(C)C2)cc1"
measuredon = "TE-8 cells"
group = 0


----------
System: TE-8 cells
assayName: Cell growth inhibitory activity, TE-8 cells (Test Example 3)
Assay type: cell-based
testSettings: Homo sapiens, 72 h, cultured for 3 days, CellTiter-Glo
# GI50 listing for each entry below
readoutType: GI50 (µM)

[[record]]
compound = "COc1ccc(C2(C(=O)N3C[C@H](F)C[C@@H]3C(=O)Nc3ccc4cc[nH]c4n3)CCCCC2)cc1 [Example 52]"
valueoperator = "="
experimentalresult = 0.439

[[record]]
compound = "COCc1cc2nc(NC(=O)[C@H]3C[C@@H](F)CN3C(=O)C3(c4ccc(OC(F)F)cc4)CCC(F)(F)CC3)ccc2[nH]1 [Example 105]"
valueoperator = "="
experimentalresult = 0.989

[[record]]
compound = "COCO[C@@H]1CN(C(=O)C2(c3ccc(OC)cc3)CCC(F)(F)CC2)[C@H]1C(=O)Nc1ccc2[nH]ncc2n1 [Example 96]"
valueoperator = ">"
experimentalresult = 10

[[record]]
compound = "CCOc1ccc(C2(C(=O)N3C[C@H](F)C[C@@H]3C(=O)Nc3ccc4[nH]ncc4n3)CC(F)(F)C2)cc1F [Example 88]"
valueoperator = "="
experimentalresult = 0.351

[[record]]
compound = "O=C(Nc1ccc2[nH]ncc2n1)[C@H]1C[C@@H](F)CN1C(=O)C1(c2ccc(-c3ccccc3)c(F)c2)CCC(F)(F)CC1 [Example 94]"
valueoperator = "="
experimentalresult = 0.586

[[record]]
compound = "COc1ccc(C2(C(=O)N3CC[C@@H](O)[C@@H]3C(=O)Nc3ccc4[nH]ccc4n3)CCC(F)(F)CC2)cc1 [Example 74]"
valueoperator = "="
experimentalresult = 0.599

[[record]]
compound = "O=C(Nc1ccc2[nH]ncc2n1)[C@H]1C[C@@H](F)CN1C(=O)C1(c2ccc(OCF)cc2)CCC(F)(F)CC1 [Example 48]"
valueoperator = "="
experimentalresult = 0.135

[[record]]
compound = "COc1ccc(C2(C(=O)N(C)[C@H](C)C(=O)Nc3ccc4[nH]ncc4n3)CCCCC2)cc1 [Example 46]"
valueoperator = "="
experimentalresult = 0.145

[[record]]
compound = "O=C(Nc1ccc2[nH]c(CO)cc2n1)[C@H]1C[C@@H](F)CN1C(=O)C1(c2ccc(OC(F)F)cc2)CCC(F)(F)CC1 [Example 106]"
valueoperator = "="
experimentalresult = 0.337

[[record]]
compound = "O=C(Nc1ccc2[nH]ncc2n1)[C@H]1C[C@@H](F)CN1C(=O)C1(c2ccc(C(=O)C(F)(F)F)cc2)CCCCC1 [Example 61]"
valueoperator = "="
experimentalresult = 0.216

[[record]]
compound = "COc1ccc(C2(C(=O)N3C[C@H](F)C[C@@H]3C(=O)Nc3ccc4[nH]ncc4n3)CCCCC2)cn1 [Example 63]"
valueoperator = "="
experimentalresult = 0.117

[[record]]
compound = "COc1ccc(C2(C(=O)N3C[C@H](F)C[C@@H]3C(=O)Nc3ccc4c(n3)CC(=O)N4)CCC(F)(F)CC2)cc1 [Example 73]"
valueoperator = "="
experimentalresult = 0.62

[[record]]
compound = "COc1ccc(C2(C(=O)N3C[C@H](F)C[C@@H]3C(=O)Nc3ccc4[nH]ncc4c3F)CCC(F)(F)CC2)cc1 [Example 100]"
valueoperator = "="
experimentalresult = 1.37

[[record]]
compound = "O=C(Nc1ccc2[nH]ncc2n1)[C@H]1C[C@@H](F)CN1C(=O)C1(c2ccc(OCF)c(F)c2)CCC(F)(F)CC1 [Example 85]"
valueoperator = "="
experimentalresult = 0.412


----------
Measured log10(GI50) (TE-8 cells)
readoutType: log10(GI50) (log10 of the value in nM)

[[record]]
chemicalstring = "COc1ccc(C2(C(=O)N3CCC[C@@H]3C(=O)Nc3cccc4[nH]ncc34)CCCCCC2)cc1"
experimentalresult = 3.65

[[record]]
chemicalstring = "COc1ccc(C2(C(=O)N3C[C@H](F)C[C@@H]3C(=O)Nc3ccc4c(n3)CC(=O)N4)CCCCC2)cc1"
experimentalresult = 2.93

[[record]]
chemicalstring = "COc1ccc(C2(C(=O)N3C[C@H](F)C[C@@H]3C(=O)Nc3ccc4[nH]ncc4n3)CCC(F)(F)CC2)cc1"
experimentalresult = 2.49

[[record]]
chemicalstring = "O=C(Nc1ccc2[nH]ncc2n1)[C@H]1[C@H](O)[C@@H](F)CN1C(=O)C1(c2ccc(OC(F)F)cc2)CCC(F)(F)CC1"
experimentalresult = 2.39

[[record]]
chemicalstring = "COc1ccc(C2(C(=O)N3C[C@H](F)C[C@@H]3C(=O)Nc3ccc4[nH]ncc4n3)CC(F)(F)C2)cc1"
experimentalresult = 1.95

[[record]]
chemicalstring = "COc1ccc(C2(C(=O)N3C[C@H](F)C[C@@H]3C(=O)Nc3cc4ccccn4n3)CCCCC2)cc1"
experimentalresult = 3.03

[[record]]
chemicalstring = "COc1ccc(C2(C(=O)N3C[C@H](F)C[C@@H]3C(=O)Nc3ccc4[nH]ncc4n3)CCOCC2)cc1"
experimentalresult = 3.13

